- assayed-target: Voltage-gated potassium channel subunit beta-2 (Rattus norvegicus) (UniProt P62483)
- Sequence (P62483 whole entry, looked up): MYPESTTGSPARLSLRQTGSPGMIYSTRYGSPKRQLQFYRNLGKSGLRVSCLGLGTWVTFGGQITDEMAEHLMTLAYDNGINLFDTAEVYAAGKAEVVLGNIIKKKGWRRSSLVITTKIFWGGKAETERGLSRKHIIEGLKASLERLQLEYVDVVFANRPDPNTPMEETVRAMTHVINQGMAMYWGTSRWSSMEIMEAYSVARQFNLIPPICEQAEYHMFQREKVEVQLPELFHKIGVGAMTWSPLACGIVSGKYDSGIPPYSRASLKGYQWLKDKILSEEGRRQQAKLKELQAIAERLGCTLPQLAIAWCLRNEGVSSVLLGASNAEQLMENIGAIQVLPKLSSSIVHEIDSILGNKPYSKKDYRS
- experimental-protocol: KvBeta enzyme negative modulators, primary screen, biochemical, NADPH fluorescence (AID 622);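 further: slope of raw intensity against log time taken from 70 to 1610 s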
- measurement-conditions: recombinant KvBeta, 4-cyanobenzaldehyde reduction, at 10 µM, hits give high values

compound: O=C1CSC(=Nc2ccc(O)cc2)N1c1ccc(O)cc1
fluorescence slope: -0.463

compound: CCC1CCCCN1c1nc(-c2cccc(OC)c2O)nc2ccccc12 (stereo unspecified)
fluorescence slope: -0.454

compound: COc1ccc(C(=O)N/C(N)=N/c2nc3ccccc3o2)cc1
fluorescence slope: -0.499

compound: CCSc1nc(N)c2c3c(sc2n1)CCC3
fluorescence slope: -0.408

compound: NS(=O)(=O)c1cc2c(cc1Cl)NC(C(Cl)Cl)NS2(=O)=O (stereo unspecified)
fluorescence slope: -0.512

compound: Nn1c(SCC(=O)Nc2ccc3c(c2)OCCO3)nnc1C(F)(F)F
fluorescence slope: -0.426

compound: COc1ccc(CCn2c(C)ccc2C)cc1OC
fluorescence slope: -0.488

compound: N/C(CCN1CCOCC1)=N/O
fluorescence slope: -0.445

compound: CCO/C(C)=N/n1c2nc3ccccc3nc2c2c(=O)n(CC(C)C)c(C)nc21
fluorescence slope: -0.438

compound: CCC(=O)OC1=C2C(=Nc3c(c(=O)n(C)c(=O)n3C)C2c2ccccc2)c2ccccc21 (stereo unspecified)
fluorescence slope: -0.505

compound: CCOC(=O)CCc1c(C)c(C#N)c2nc3ccccc3n2c1-n1ccnc1
fluorescence slope: -0.172

====

- assayed-target: Voltage-gated potassium channel subunit beta-2 (Rattus norvegicus) (UniProt P62483)
- experimental-protocol: KvBeta enzyme negative modulators, primary screen, biochemical, NADPH fluorescence (AID 622);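 further: slope of raw intensity against log time taken from 70 to 1610 s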
- measurement-conditions: recombinant KvBeta, 4-cyanobenzaldehyde reduction, at 10 µM, hits give high values

compound: CC1(C)CC(=O)C(CCCN2C(=O)c3ccccc3C2=O)C(=O)C1
assayed-target: Voltage-gated potassium channel subunit beta-2 (Rattus norvegicus) (UniProt P62483)
fluorescence slope: -0.379

compound: Cn1c(=O)n(Cc2ccccc2)c(=O)c2c1nc(NCC1CCCO1)n2Cc1ccccc1 (stereo unspecified)
assayed-target: Voltage-gated potassium channel subunit beta-2 (Rattus norvegicus) (UniProt P62483)
fluorescence slope: -0.509

compound: CCOc1cccc(-c2nnc3sc(COc4ccccc4)nn23)c1
assayed-target: Voltage-gated potassium channel subunit beta-2 (Rattus norvegicus) (UniProt P62483)
fluorescence slope: -0.433

compound: N#CC1=C(N)N(c2ccccc2)C(c2ccccc2)C1(C#N)C#N (stereo unspecified)
assayed-target: Voltage-gated potassium channel subunit beta-2 (Rattus norvegicus) (UniProt P62483)
fluorescence slope: -0.346

compound: CCCSc1ccc2nc(NC(=O)OC)[nH]c2c1
assayed-target: Voltage-gated potassium channel subunit beta-2 (Rattus norvegicus) (UniProt P62483)
fluorescence slope: -0.486

compound: CCCCOC(=O)CSc1nc(N)c(C#N)c(-c2ccc(OC)cc2)c1C#N
assayed-target: Voltage-gated potassium channel subunit beta-2 (Rattus norvegicus) (UniProt P62483)
fluorescence slope: -0.52

compound: Cc1ccc(N2C(=O)CC(N(O)C3CC(=O)N(c4ccc(C)cc4)C3=O)C2=O)cc1 (stereo unspecified)
assayed-target: Voltage-gated potassium channel subunit beta-2 (Rattus norvegicus) (UniProt P62483)
fluorescence slope: -0.427

compound: Cc1ccc(-n2c(N)c(C(N)=O)sc2=S)cc1
assayed-target: Voltage-gated potassium channel subunit beta-2 (Rattus norvegicus) (UniProt P62483)
fluorescence slope: -0.427

compound: COc1ccc(/C(O)=C2/C(=O)C(=O)N(c3ncccn3)C2c2ccc(OC)c(OC)c2)cc1 (stereo unspecified)
assayed-target: Voltage-gated potassium channel subunit beta-2 (Rattus norvegicus) (UniProt P62483)
fluorescence slope: -0.352

compound: Nc1ccc(Cl)cc1/C(=N/O)c1ccccc1
assayed-target: Voltage-gated potassium channel subunit beta-2 (Rattus norvegicus) (UniProt P62483)
fluorescence slope: -0.451

compound: O=C(OCC#CCSc1nnc(-c2ccccc2)o1)c1cccs1
assayed-target: Voltage-gated potassium channel subunit beta-2 (Rattus norvegicus) (UniProt P62483)
fluorescence slope: -0.396

compound: COc1ccc(Cl)cc1C(=O)NCCc1ccc(S(=O)(=O)NC(=O)NC2CCCCC2)cc1
assayed-target: Voltage-gated potassium channel subunit beta-2 (Rattus norvegicus) (UniProt P62483)
fluorescence slope: -0.462

compound: CN(C)S(=O)(=O)Nc1ccc(NS(=O)(=O)N(C)C)c(S(=O)(=O)c2ccccc2)c1
assayed-target: Voltage-gated potassium channel subunit beta-2 (Rattus norvegicus) (UniProt P62483)
fluorescence slope: -0.495

compound: Cc1ccc(-c2ccc(/C=N/c3ncn[nH]3)o2)cc1Cl
assayed-target: Voltage-gated potassium channel subunit beta-2 (Rattus norvegicus) (UniProt P62483)
fluorescence slope: -0.446

compound: CCC(NC(C)C)C(O)c1ccc(O)c(O)c1 (stereo unspecified)
assayed-target: Voltage-gated potassium channel subunit beta-2 (Rattus norvegicus) (UniProt P62483)
fluorescence slope: -0.492

compound: CC1(C)Nc2ccc(O)cc2-c2c1ssc2=S
assayed-target: Voltage-gated potassium channel subunit beta-2 (Rattus norvegicus) (UniProt P62483)
fluorescence slope: -0.316

compound: C=CCn1c(SCC(=O)c2ccccc2)nnc1-c1ccc2c(c1)OCO2
assayed-target: Voltage-gated potassium channel subunit beta-2 (Rattus norvegicus) (UniProt P62483)
fluorescence slope: -0.528

compound: OCCN1CCN(CCCN2c3ccccc3Sc3ccc(Cl)cc32)CC1
assayed-target: Voltage-gated potassium channel subunit beta-2 (Rattus norvegicus) (UniProt P62483)
fluorescence slope: -0.46

compound: O=C1OC2CCC1(c1ccccc1)C2 (stereo unspecified)
assayed-target: Voltage-gated potassium channel subunit beta-2 (Rattus norvegicus) (UniProt P62483)
fluorescence slope: -0.524

compound: Cc1ccc2cc(CN(C(=O)c3ccco3)c3ccccc3C)c(=O)[nH]c2c1
assayed-target: Voltage-gated potassium channel subunit beta-2 (Rattus norvegicus) (UniProt P62483)
fluorescence slope: -0.477

compound: Clc1ccc2nc(CSc3nc4ccccc4o3)cn2c1
assayed-target: Voltage-gated potassium channel subunit beta-2 (Rattus norvegicus) (UniProt P62483)
fluorescence slope: -0.49

compound: CCC(=O)Nc1cc(-c2nn(C)c(=O)c3ccccc23)ccc1N1CCCCC1
assayed-target: Voltage-gated potassium channel subunit beta-2 (Rattus norvegicus) (UniProt P62483)
fluorescence slope: -0.373

compound: CCOc1cccc(-c2nnc3sc(-c4ccco4)nn23)c1
assayed-target: Voltage-gated potassium channel subunit beta-2 (Rattus norvegicus) (UniProt P62483)
fluorescence slope: -0.428

compound: CC(=O)c1cc(C#N)c(SCC(=O)C(C)(C)C)nc1C
assayed-target: Voltage-gated potassium channel subunit beta-2 (Rattus norvegicus) (UniProt P62483)
fluorescence slope: -0.462

compound: CCOC(=O)CSc1nnc2n(C3CCCCC3)c(=O)c3c4c(sc3n12)CCCC4
assayed-target: Voltage-gated potassium channel subunit beta-2 (Rattus norvegicus) (UniProt P62483)
fluorescence slope: -0.533

compound: Cc1[nH]nc2c1C(CCc1ccccc1)C(C#N)=C(N)O2 (stereo unspecified)
assayed-target: Voltage-gated potassium channel subunit beta-2 (Rattus norvegicus) (UniProt P62483)
fluorescence slope: -0.498

compound: CC1(C)CC(=O)C2=C(C1)Oc1nc3ccccc3cc1C2C(C#N)C#N (stereo unspecified)
assayed-target: Voltage-gated potassium channel subunit beta-2 (Rattus norvegicus) (UniProt P62483)
fluorescence slope: -0.414

compound: CCCc1[nH]nc2c1C(c1cccc(OC)c1)C(C#N)=C(N)O2 (stereo unspecified)
assayed-target: Voltage-gated potassium channel subunit beta-2 (Rattus norvegicus) (UniProt P62483)
fluorescence slope: -0.401

compound: CC(C)(C)C1=Nn2c(nnc2-c2ccco2)SC1
assayed-target: Voltage-gated potassium channel subunit beta-2 (Rattus norvegicus) (UniProt P62483)
fluorescence slope: -0.423

compound: C1CCC(C(CC2CCCCN2)C2CCCCC2)CC1 (stereo unspecified)
assayed-target: Voltage-gated potassium channel subunit beta-2 (Rattus norvegicus) (UniProt P62483)
fluorescence slope: -0.498

compound: c1ccc(CN2CCN(c3ncnc4c3[nH]c3ccccc34)CC2)cc1
assayed-target: Voltage-gated potassium channel subunit beta-2 (Rattus norvegicus) (UniProt P62483)
fluorescence slope: -0.381

compound: COC(=O)c1ccccc1NC=C1C(=O)OC2(CCCCC2)OC1=O
assayed-target: Voltage-gated potassium channel subunit beta-2 (Rattus norvegicus) (UniProt P62483)
fluorescence slope: -0.443

compound: CC1CN(c2oc(-c3cccs3)nc2C#N)CC(C)O1 (stereo unspecified)
assayed-target: Voltage-gated potassium channel subunit beta-2 (Rattus norvegicus) (UniProt P62483)
fluorescence slope: -0.0506

compound: O=C(O)CCCCCN1C(=O)CCC1=O
assayed-target: Voltage-gated potassium channel subunit beta-2 (Rattus norvegicus) (UniProt P62483)
fluorescence slope: -0.456

compound: COc1cccc(-c2nnc3sc(-c4cccs4)nn23)c1
assayed-target: Voltage-gated potassium channel subunit beta-2 (Rattus norvegicus) (UniProt P62483)
fluorescence slope: -0.406

compound: CCCCCCn1c(C(C)O)nc2ccccc21 (stereo unspecified)
assayed-target: Voltage-gated potassium channel subunit beta-2 (Rattus norvegicus) (UniProt P62483)
fluorescence slope: -0.5

compound: Cc1ccc2cc(CN(C(=O)c3ccco3)c3ccccc3)c(=O)[nH]c2c1
assayed-target: Voltage-gated potassium channel subunit beta-2 (Rattus norvegicus) (UniProt P62483)
fluorescence slope: -0.412

compound: CCOC(=O)c1c(C)n(C)c2ccc(OC)c(NC(=O)CN3CCCCC3)c12
assayed-target: Voltage-gated potassium channel subunit beta-2 (Rattus norvegicus) (UniProt P62483)
fluorescence slope: -0.46

compound: CC(=O)OCC(=O)[C@@]1(O)CC[C@H]2[C@@H]3CCC4=CC(=O)CC[C@]4(C)[C@H]3[C@@H](O)C[C@@]21C
assayed-target: Voltage-gated potassium channel subunit beta-2 (Rattus norvegicus) (UniProt P62483)
fluorescence slope: -0.454

compound: CN(C)c1ccc(C=NCCC2(O)CCOC(C)(C)C2)cc1 (stereo unspecified)
assayed-target: Voltage-gated potassium channel subunit beta-2 (Rattus norvegicus) (UniProt P62483)
fluorescence slope: -0.416

compound: COc1ccc(C2=Nn3c(nnc3-c3ccccn3)SC2)cc1OC
assayed-target: Voltage-gated potassium channel subunit beta-2 (Rattus norvegicus) (UniProt P62483)
fluorescence slope: -0.476

compound: CC1(C)C/C(=C(/C#N)C(N)=O)CCO1
assayed-target: Voltage-gated potassium channel subunit beta-2 (Rattus norvegicus) (UniProt P62483)
fluorescence slope: -0.392

compound: c1ccc2c(CC3=NCCN3)cccc2c1
assayed-target: Voltage-gated potassium channel subunit beta-2 (Rattus norvegicus) (UniProt P62483)
fluorescence slope: -0.503

compound: CC(=O)Oc1cc(C(C)C)c(OCCN(C)C)cc1C
assayed-target: Voltage-gated potassium channel subunit beta-2 (Rattus norvegicus) (UniProt P62483)
fluorescence slope: -0.475

compound: COc1cc(C2C(C(=O)c3cccs3)=C(O)C(=O)N2c2cc(C)on2)ccc1O (stereo unspecified)
assayed-target: Voltage-gated potassium channel subunit beta-2 (Rattus norvegicus) (UniProt P62483)
fluorescence slope: -0.43

compound: CCN(CCCCOC(=O)c1ccc(OC)c(OC)c1)C(C)Cc1ccc(OC)cc1 (stereo unspecified)
assayed-target: Voltage-gated potassium channel subunit beta-2 (Rattus norvegicus) (UniProt P62483)
fluorescence slope: -0.488
